test system: PfIESI-1 RRM domain (Plasmodium falciparum ortholog aa 875-1232, GST fusion); assay: RBNS R-value (6-mer enrichment in protein-bound RNA vs input library) (ratio); higher = stronger binding preference; conditions: protein concentration: 250 nM
In all, about 4,100 sequences were measured (“RBNS R-value (6-mer enrichment in protein-bound RNA vs input library)”: median about 0.99, highest 2% from about 1.4 on). Shown is part of a subset that was picked to be rich in the highest values.
observed property: RBNS R-value
Respond using a number only.

Below, 5 sequences whose answers are already recorded.
sequence_record=UAUGGG test_result=0.895
sequence_record=GAUCGU test_result=0.85
sequence_record=UAAAAC test_result=0.916
sequence_record=CCUUGA test_result=1.46
sequence_record=AAUUAG test_result=0.847

Log: PfIESI-1 RRM domain (Plasmodium falciparum ortholog aa 875-1232, GST fusion), sequence CAUGGC , RBNS R-value = 1.03

Log: PfIESI-1 RRM domain (Plasmodium falciparum ortholog aa 875-1232, GST fusion), sequence UGUCAG , RBNS R-value = 0.921

Log: PfIESI-1 RRM domain (Plasmodium falciparum ortholog aa 875-1232, GST fusion), sequence ACUUGU , RBNS R-value = 0.921

Log: PfIESI-1 RRM domain (Plasmodium falciparum ortholog aa 875-1232, GST fusion), sequence UAUUAC , RBNS R-value = 0.773

Log: PfIESI-1 RRM domain (Plasmodium falciparum ortholog aa 875-1232, GST fusion), sequence GAUUAA , RBNS R-value = 1.24

----------
test system: PfIESI-1 RRM domain (Plasmodium falciparum ortholog aa 875-1232, GST fusion); assay: RBNS R-value (6-mer enrichment in protein-bound RNA vs input library) (ratio); higher = stronger binding preference; settings: protein concentration: 1000 nM
Over roughly 4,100 sequences, “RBNS R-value (6-mer enrichment in protein-bound RNA vs input library)” has its median near 0.99; the highest 2% begin near 1.4. The entries come from a sample that favours the highest values as a whole.
Listed here: items and their measured RBNS R-value.
Respond using a number only.

sequence_record=GGCACU test_result=1.07

GACACU has a reported RBNS R-value of 1.14

UGACCG has a reported RBNS R-value of 1.07

GCACUA has a reported RBNS R-value of 0.892

----------
system: PfIESI-1 RRM domain (Plasmodium falciparum ortholog aa 875-1232, GST fusion); assay: RBNS R-value (6-mer enrichment in protein-bound RNA vs input library) (ratio); higher = stronger binding preference; the methods of the paper give 50 / 100 / 500 nM protein instead; settings: protein concentration: 500 nM
The full ranking holds about 4,100 sequences; the median of “RBNS R-value (6-mer enrichment in protein-bound RNA vs input library)” is about 0.99, and the highest 2% start at about 1.4. Only a selection was taken, and the highest values are over-represented in it overall.
So basically: RBNS R-value at 1 or higher? That is true (1). Lower than 1? That is false (0).

Consider the worked cases shown below.
sequence_record=GAUUUA class_name="true (1)"
sequence_record=AAUUUU class_name="true (1)"
sequence_record=GAUUUG class_name="true (1)"
sequence_record=UACAAA class_name="false (0)"
sequence_record=CAUUUC class_name="false (0)"

input: Determine whether this sequence has RBNS R-value no lower than 1: CAUUUA
output: false (0)

input: Determine whether this sequence has RBNS R-value no lower than 1: AAUUUG
output: true (1)

input: Determine whether this sequence has RBNS R-value no lower than 1: AAUUUC
output: true (1)

input: Determine whether this sequence has RBNS R-value no lower than 1: GAUUUC
output: true (1)
